# assayed.system: T1, Human OSM (human, UniProt P13725 26-221)
# T1 construct: Recombinant human OSM; also called hOSM; human Oncostatin M
# T1 sequence: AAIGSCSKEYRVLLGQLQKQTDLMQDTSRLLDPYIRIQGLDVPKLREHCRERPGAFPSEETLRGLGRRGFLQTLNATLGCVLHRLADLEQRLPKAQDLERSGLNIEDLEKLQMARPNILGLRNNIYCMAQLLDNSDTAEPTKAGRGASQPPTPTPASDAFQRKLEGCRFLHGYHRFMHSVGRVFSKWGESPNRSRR
# assay.explanation: BIAcore kinetics, transfection supernatant
measurement.kind: koff (s⁻¹)
Please state the figure in s⁻¹; there is no need to write the unit.

stdin: State the recorded koff for this entry: Humanised 10G8 H1L2 (antibody, V domains shown) VH: EMQLVESGGGLVQPGGSLRLSCAASGFTFSNYAMSWVRQAPGKGLEWVATISDGGSFTYYLDNVRGRFTISRDNAKNSLYLQMNSLRAEDTAVYYCARDVGHTTFWYFDVWGRGTLVTVSS VL: DIVMTQSPDSLAVSLGERATINCRASKSVSAAGYNFMHWYQQKPGQPPKLLIYYASNLESGVPDRFSGSGSGTDFTLTISSLQAEDVVVYYCLHSREFPFTFGGGTKVEIK
stdout: 0.000163

Next, consider the following binder.
stdin: State the recorded koff for this entry: Humanised 10G8 H0L0 (antibody, V domains shown) VH: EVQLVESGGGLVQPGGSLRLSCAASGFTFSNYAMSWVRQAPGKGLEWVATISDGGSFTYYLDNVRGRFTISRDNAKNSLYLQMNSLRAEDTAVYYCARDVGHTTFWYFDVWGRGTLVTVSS VL: DIVMTQSPDSLAVSLGERATINCRASKSVSAAGYNFMHWYQQKPGQPPKLLIYYASNLESGVPDRFSGSGSGTDFTLTISSLQAEDVAVYYCLHSREFPFTFGGGTKVEIK
stdout: 0.00016
